PROTOCOL DESCRIPTION: log P by HPLC (OECD Guideline 117), method [b] neutral range
Assay type: physicochemical
TEST SETTINGS: HPLC, method [b] neutral range
Simple rule here: logP[b] less than 3 is Fulfilled, otherwise Not fulfilled.

Completed entries (count: 3):
COMPOUND	DISCRETE LABEL
COc1nn(-c2cc(SCC(F)(F)F)c(C)cc2Cl)c(=O)n1C1CC1	Not fulfilled
COc1nn(-c2cc([S+]([O-])CC(F)(F)F)c(Cl)cc2Cl)c(=O)n1C1CC1 (stereo not drawn)	Fulfilled
C=CCn1c(OCC(F)(F)F)nn(-c2cc([S+]([O-])CC(F)(F)F)c(C)cc2F)c1=O (stereo not drawn)	Fulfilled

Quick check: does COc1nn(-c2cc([S+]([O-])CC(F)(F)F)c(F)cc2F)c(=O)n1C1CC1 (stereo not drawn) have logP[b] under 3?
Fulfilled

Check if logP[b] falls below 3 for C=CCn1c([S+]([O-])CCC)nn(-c2cc([S+]([O-])CC(F)(F)F)c(C)cc2F)c1=O (stereo not drawn) .
Fulfilled

Just wondering, is logP[b] of `COc1ccccc1-c1nn(-c2cc(SCC(F)(F)F)c(C)cc2F)c(=O)n1C1CC1` below 3?
Not fulfilled

Given Cc1cc(F)c(-n2nc(SC(C)C)n(C)c2=O)cc1[S+]([O-])CC(F)(F)F (stereo not drawn) , is recorded logP[b] strictly lower than 3?
Fulfilled

Just wondering, is logP[b] of `CCCCOc1nn(-c2ccc(C)c(SCC(F)(F)F)c2)c(=O)n1C1CC1` below 3?
Not fulfilled

State whether 3 exceeds logP[b] recorded for C=CCSc1nn(-c2cc([S+]([O-])CC(F)(F)F)c(C)cc2F)c(=O)n1C (racemic) .
Fulfilled

Would you kindly verify if logP[b] of `Cc1cc(F)c(-n2nc(CC(C)C)n(C3CC3)c2=S)cc1SCC(F)(F)F` is strictly less than 3?
Not fulfilled

# check: logP[b] < 3 for COC1=CC(=O)N(c2ccc(C)c([S+]([O-])CC(F)(F)F)c2)C1 (racemic)
Fulfilled

---

PROTOCOL DESCRIPTION: log P by HPLC (OECD Guideline 117), method [a] acidic range
Type: physicochemical
TEST SETTINGS: HPLC, method [a] acidic range
Decide by logP[a]: equal to or exceeding 3 means rule met, less means rule not met.

COMPOUND	DISCRETE LABEL
CCCCOc1nn(-c2cc([S+]([O-])CC(F)(F)F)c(C)cc2F)c(=O)n1C1CC1 (stereo not drawn)	rule met
N#Cc1cc(F)c(-n2nc(C(F)(F)F)oc2=O)cc1[S+]([O-])CC(F)(F)F (racemic)	rule not met
Cc1cc(F)c(-n2nc(OC(C)C)n(C)c2=O)cc1SCC(F)(F)F	rule met
CCOCc1nn(-c2cc([S+]([O-])CC(F)(F)F)c(C)cc2F)c(=O)n1C1CC1 (racemic)	rule not met
Cc1cc(F)c(-n2ncn(C3CC3)c2=O)cc1[S+]([O-])CC(F)(F)F (racemic)	rule not met
CCn1c(OCC(F)(F)F)nn(-c2cc(SCC(F)(F)F)c(C)cc2F)c1=O	rule met
COCc1nn(-c2cc(SCC(F)(F)F)c(C)cc2F)c(=O)o1	rule met
CCCCc1nn(-c2cc(SCC(F)(F)F)c(C)cc2F)c(=O)n1C1CC1	rule met

Check the entry Cc1cc(F)c(-n2nc(Oc3ccccc3)n(C)c2=O)cc1[S+]([O-])CC(F)(F)F (stereo not drawn) : does logP[a] equal or exceed 3?
rule not met

Does Cc1cc(F)c(-n2nc(N(C)C)n(N)c2=O)cc1[S+]([O-])CC(F)(F)F (stereo not drawn) have a reported logP[a] of at least 3?
rule not met
